assay_system: human FSH receptor (Homo sapiens, UniProt P23945)
Sequence (P23945 18-695): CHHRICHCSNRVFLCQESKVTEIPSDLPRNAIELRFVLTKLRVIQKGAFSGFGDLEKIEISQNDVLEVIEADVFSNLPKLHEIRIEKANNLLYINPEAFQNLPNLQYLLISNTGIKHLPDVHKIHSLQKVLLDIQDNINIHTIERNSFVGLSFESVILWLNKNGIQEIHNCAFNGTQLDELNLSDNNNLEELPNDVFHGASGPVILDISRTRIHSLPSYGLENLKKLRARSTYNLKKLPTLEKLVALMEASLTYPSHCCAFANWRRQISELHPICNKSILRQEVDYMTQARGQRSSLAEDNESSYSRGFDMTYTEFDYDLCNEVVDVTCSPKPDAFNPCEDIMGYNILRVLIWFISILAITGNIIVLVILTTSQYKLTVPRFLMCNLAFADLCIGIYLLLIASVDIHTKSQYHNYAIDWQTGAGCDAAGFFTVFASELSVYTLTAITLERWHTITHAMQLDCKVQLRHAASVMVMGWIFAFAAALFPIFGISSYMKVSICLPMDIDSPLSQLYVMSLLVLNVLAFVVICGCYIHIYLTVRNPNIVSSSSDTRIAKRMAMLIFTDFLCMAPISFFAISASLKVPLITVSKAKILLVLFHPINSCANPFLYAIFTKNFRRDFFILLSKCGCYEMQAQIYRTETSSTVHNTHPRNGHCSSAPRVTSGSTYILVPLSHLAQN
method_description: HTRF assay for measuring cAMP in cells (FSH antagonism)
assay_setup: FSH antagonistic effect in the HTRF assay; hFSHR clone 16 cells (CHO cells stably transfected with the human FSH receptor); in the presence of 1e-9 mol/l hFSH
experimental_endpoint: IC50 (µM)
Write down the numeric answer in µM and omit the unit.

## Task Would you kindly share the measured IC50 for "O=S(=O)(N[C@@H](CO)Cc1c[nH]c2ccccc12)c1cc(-c2ccc3ncccc3c2)cc2c1OCC2" ?
## Result 5

## Task Input "N#CCc1ccc(-c2cc3c(c(S(=O)(=O)N[C@@H](CO)Cc4c[nH]c5ccccc45)c2)OCC3)cc1"
## Result 10
